B1: IQUB (parent)
chain: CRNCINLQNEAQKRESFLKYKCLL

variants of: B1; assay: protein stability index of a GFP-peptide fusion (GPS, HEK-293T) (PSI 1-6); higher = more stable; conditions: c terminus: a fixed tail appended;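 also: lentivirally expressed fusions sorted by FACS into six bins by GFP to DsRed ratio, PSI derived from sequencing read proportions per bin multiplied by bin number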
readoutKind: protein stability index
Keep the answer to the number alone.

In the examples that follow, each entry is paired with its recorded protein stability index.
Q12D = 1.87
K19L = 2.69
N3K = 1.9
C22A = 1.58
K13C = 1.17

The recorded protein stability index for Q12H is 1.75

The recorded protein stability index for Q8G is 1.57
